pEC50: −log10 of the molar value.
pEC50, fMet-Leu-Phe receptor (Homo sapiens, UniProt P21462): measured values
property name: pEC50

Previously resolved entries follow.
{"compound": "COc1cc(F)c(-n2cc(C(=O)NCCO)nc2NC(=O)c2ccc(OC(F)F)cc2)c(F)c1", "pEC50": 6.89}
{"compound": "COc1ccc(-n2cc(-c3nc4ccccc4s3)nc2NC(=O)c2ccc(OC(F)F)cc2)cc1", "pEC50": 7.55}
{"compound": "COc1cc(F)c(-n2cc(CC(C)C)nc2NC(=O)c2ccc(OC(F)F)cc2)c(F)c1", "pEC50": 7.00}
{"compound": "COc1cc(F)c(-n2cc(-c3ccn[nH]3)nc2NC(=O)c2ccc(OC(F)F)cc2)c(F)c1", "pEC50": 7.23}
{"compound": "COc1cc(F)c(-n2cc(C(=O)N3CC[C@H](O)C3)nc2NC(=O)c2ccc(OC(F)F)cc2)c(F)c1", "pEC50": 6.92}

1 = COc1ccc(-n2cc(-c3ccccc3)nc2NC(=O)c2ccc(OC(F)F)cc2)cc1
2 = CCOC(=O)c1cc(-c2cn(-c3ccc(OC)cc3)c(NC(=O)c3ccc(OC(F)F)cc3)n2)on1
Which record would sort first by descending pEC50, 1 or 2 ? Mark your selection by writing its label. 1

I = COc1ccc(-n2cc(C34CC5CC(CC(C5)C3)C4)nc2NC(=O)c2ccc(OC(F)F)cc2)cc1
II = COc1cc(F)c(-n2cc(C(=O)NCCCO)nc2NC(=O)c2ccc(OC(F)F)cc2)c(F)c1
III = COc1cc(F)c(-n2cc(C3CCNCC3)nc2NC(=O)c2ccc(OC(F)F)cc2)c(F)c1
Order by pEC50, ascending. Please list each label once, in the requested order. I, II, III

1 = COc1cc(F)c(-n2cc(C(=O)N3CCC(CO)CC3)nc2NC(=O)c2ccc(OC(F)F)cc2)c(F)c1
2 = COc1ccc(-n2cc(-c3nccs3)nc2NC(=O)c2ccc(OC(F)F)cc2)cc1
3 = COc1cc(F)c(-n2cc(C3CCN(C(=O)CCO)CC3)nc2NC(=O)c2ccc(OC(F)F)cc2)c(F)c1
Descending sort on pEC50 required. The reply should contain the labels ordered as requested. 2, 3, 1
